# systemTested: DN-III quality control recombinant protein (produced by Fapon Biotech InC.) (dengue virus)
# measurementDescription: BLI, AMC sensor, antibody captured
pKd: −log10 of the molar value.
As shown below, each of these binders has a reported pKd value.
outcomeMeasure: pKd

INSERT INTO assay_data (binder, outcomemeasure, obsvalue) VALUES
  ('Mutation 1-11 (antibody, V domains shown) VH: EVQLQQSGTELVRPGALVKLSCKASGFNIKDYYLHWVKQRPRQGLEWIGWIDPENGKTLYDPKFQDKASITSDTSTNTAYLQLRSLTSEDTAVYYCVSAYYRFVYWGQGTLVTVSA VL: QIVLTQSPAIMSAFPGERVTMTCSASSSVRYMYWHQQKPGSSPRLLIYDTSNVASGVPVRFSGSGSGTSYSLTISRDEAMDAATYYCQQWSSFPRTFGGGTKLEIKR', 'pKd', 9.06),
  ('Mutation 1-19 (antibody, V domains shown) VH: EVQLQQSGTELVRPGALVKLSCKASGFNIKDYYIHWVKQRPRQGLEWIGWIDPENGKTIYDPKFQDKASITSDTSTNTAYLQLRSLTSEDTAVYYCVSAYFRFVYWGQGTLVTVSA VL: QIVLTQSPAIMSAFPGERVTMTCSASTSVRYMYWHQQKPGSSPRLLIYDTSNVASGVPVRFSGSGSGTSYSLTISRDEAMDAATYYCQQWSSYPRTFGGGTKLEIKR', 'pKd', 8.39),
  ('Mutation 1-10 (antibody, V domains shown) VH: EVQLQQSGTELVRPGALVKLSCKASGFNIKDYYIHWVKQRPRQGLEWIGWIDPENGKTIYDPKFQDKASITSDTSTNTAYLQLRSLTSEDTAVYYCVSAYFRFVYWGQGTLVTVSA VL: QIVLTQSPAIMSAFPGERVTMTCSASTSVRYMYWHQQKPGSSPRLLIYDTSNLASGVPVRFSGSGSGTSYSLTISRDEAMDAATYYCQQWSSYPRTFGGGTKLEIKR', 'pKd', 8.94);
